Reference source: patent US10183938B2

- SYSTEM TESTED: human 5-HT3 serotonin receptors (Homo sapiens (Human), UniProt P46098)
- Sequence (P46098 24-478): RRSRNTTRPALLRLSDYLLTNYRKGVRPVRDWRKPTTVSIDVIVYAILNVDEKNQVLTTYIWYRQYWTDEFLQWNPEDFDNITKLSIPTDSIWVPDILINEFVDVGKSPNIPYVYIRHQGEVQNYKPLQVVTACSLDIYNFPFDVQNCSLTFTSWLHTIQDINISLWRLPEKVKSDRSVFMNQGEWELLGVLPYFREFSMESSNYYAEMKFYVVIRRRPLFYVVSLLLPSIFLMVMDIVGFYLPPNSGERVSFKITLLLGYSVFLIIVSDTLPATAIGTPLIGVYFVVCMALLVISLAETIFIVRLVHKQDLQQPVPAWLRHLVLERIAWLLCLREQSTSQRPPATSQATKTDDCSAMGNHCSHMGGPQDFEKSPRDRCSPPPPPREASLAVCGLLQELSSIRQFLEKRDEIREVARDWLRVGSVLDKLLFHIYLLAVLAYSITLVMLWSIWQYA
- METHOD: [3H]BRL 43694 competition binding
- CONDITION: CHO cell membranes, [3H]BRL 43694, Cheng Prusoff; read-out: h-5HT3 Ki
Structures can show the parent of a compound that is named as a salt.
Record form. Attribute: pKi. Fill in for each entry.
One number for each entry, as −log10 of the molar value.

Take a look at these entries with their results.
COMPOUND: COCc1cccc2cc(C(=O)N[C@@H]3C4CCN(CC4)C34CC4)sc12 [(R)-199, hydrochloride]
DATA VALUE: 6.24
--
COMPOUND: Cc1cccc2cc(C(=O)N[C@@H]3C4CCN(CC4)C34CC4)sc12 [(R)-176, hydrochloride]
DATA VALUE: 6.89

Let us move to another entry and its pKi.
INPUT: Query (compound): CC1(C)[C@H](NC(=O)c2cc3ccoc3cn2)C2CCN1CC2 [(R)-22, hydrochloride] ; field requested: pKi
OUTPUT: 5.19

---

- SYSTEM TESTED: human α7 nAChRs transiently expressed in Xenopus laevis oocytes (Homo sapiens (Human))
- Sequence (P36544 23-502 limits assumed): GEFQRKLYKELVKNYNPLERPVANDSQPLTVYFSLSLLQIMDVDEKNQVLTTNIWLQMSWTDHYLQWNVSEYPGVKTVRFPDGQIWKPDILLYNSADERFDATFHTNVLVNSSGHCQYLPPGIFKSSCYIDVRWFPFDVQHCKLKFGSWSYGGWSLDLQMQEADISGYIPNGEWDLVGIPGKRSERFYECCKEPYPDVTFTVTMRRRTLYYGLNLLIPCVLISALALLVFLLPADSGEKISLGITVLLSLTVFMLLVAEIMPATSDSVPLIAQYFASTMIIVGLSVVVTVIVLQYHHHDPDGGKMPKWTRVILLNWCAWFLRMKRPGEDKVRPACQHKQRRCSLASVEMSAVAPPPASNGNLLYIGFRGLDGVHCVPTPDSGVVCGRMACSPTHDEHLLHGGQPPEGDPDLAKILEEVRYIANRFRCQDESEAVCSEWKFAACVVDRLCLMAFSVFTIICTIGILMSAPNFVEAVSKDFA
- METHOD: Oocyte electrophysiology screen (TEVC)
- Type: cell-based
- CONDITION: 0.01 mM test compound, peak current relative to 0.2 mM ACh
Where a name gives a salt, the structure may show the parent alone.
Record form. Attribute: % ACh @ 10 μM Oocyte. Fill in for each entry.
Answers are plain numbers, in % ACh.

Provide the reported % ACh @ 10 μM Oocyte of each entry below, same order.
1. Cc1ccc2cc(C(=O)N[C@H]3C4CCN(CC4)C3(C)C)sc2c1 [(S)-15, hydrochloride]
2. CC1(C)[C@@H](NC(=O)c2cc3cc(C(F)(F)F)ccc3s2)C2CCN1CC2 [(S)-17, hydrochloride]

OUTPUT:
[3, 1]

---

Record form. Attribute: % ACh @ 10 μM Oocyte. Fill in for each entry.
- SYSTEM TESTED: human α7 nAChRs transiently expressed in Xenopus laevis oocytes (Homo sapiens (Human))
- METHOD: Oocyte electrophysiology screen (TEVC)
- Type: cell-based
- CONDITION: 0.01 mM test compound, peak current relative to 0.2 mM ACh
Where a name gives a salt, the structure may show the parent alone.
Provide a numeric answer, followed by its unit.

COMPOUND: O=C(N[C@H]1C2CCN(CC2)C12CC2)c1cc2ccoc2cn1 [(S)-75, hydrochloride]
OUTCOME MEASURE: % ACh @ 10 μM Oocyte
DATA VALUE: 14 % ACh
--
COMPOUND: CC1(C)[C@@H](NC(=O)c2cc3ccc(F)cc3s2)C2CCN1CC2 [(S)-8, hydrochloride]
OUTCOME MEASURE: % ACh @ 10 μM Oocyte
DATA VALUE: 1 % ACh
--
COMPOUND: O=C(NC1C2CCN(CC2)C12CC2)c1cc2cccc(C(F)(F)F)c2s1 (single isomer, unassigned; enantiomer2) [60b]
OUTCOME MEASURE: % ACh @ 10 μM Oocyte
DATA VALUE: 1 % ACh
--
COMPOUND: O=C(NC1C2CCN(CC2)C12CC2)c1cc2cccc(C(F)(F)F)c2s1 (single isomer, unassigned; enantiomer1) [60a]
OUTCOME MEASURE: % ACh @ 10 μM Oocyte
DATA VALUE: 501 % ACh

INPUT: Query (compound): CC1(C)[C@H](NC(=O)c2cc3ccc(C4CCOCC4)cc3s2)C2CCN1CC2 [(R)-50, hydrochloride] ; field requested: % ACh @ 10 μM Oocyte
OUTPUT: 0 % ACh
